Please respond with reported IC50 for every item in the list.
Molecular target: JAK2 (Homo sapiens)
Construct: endogenous in cells
Assay: Kinobeads assay, JAK2
Conditions: mixed Molt4/Ramos lysate, read-out: Inhibition values (IC50) JAK2

Known IC50 results, listed for orientation:
Data request: Recorded IC50 for Cn1cc(Nc2ncc3cnn(Cc4cccc(N5CCC6(COC6)C5)c4)c3n2)cn1 [Example 104] , please?
Data returned: ≥ 10 µM

Data request: Recorded IC50 for Cn1cc(Nc2ncc3cnn(Cc4cc(C(=O)N5CCOCC5)cc(F)c4F)c3n2)cn1 [Example 98] , please?
Data returned: 1 to 10 µM

Data request: Recorded IC50 for Cn1cc(Nc2ncc3cnn(Cc4cccc(N5CC6CCC(C5)O6)c4)c3n2)cn1 [Example 26] , please?
Data returned: ≥ 10 µM

Report IC50 for every entry below.
1. CN1CCN(c2cccc(Cn3ncc4cnc(Nc5cnn(C)c5)nc43)c2)CC1 [Example 10]
2. Cn1cc(Nc2ncc3cnn(Cc4cc(F)cc(N5CCOCC5=O)c4)c3n2)cn1 [Example 52]
3. Cn1cc(Nc2ncc3cnn(Cc4cccc(C(=O)N5CCOCC5)c4F)c3n2)cn1 [Example 87]

Data returned:
1. ≥ 10 µM
2. 1 to 10 µM
3. 1 to 10 µM

Report IC50 for every entry below.
1. Cn1cc(Nc2ncc3cnn(Cc4cccc(C(=O)N5CCOCC5)c4)c3n2)cn1 [Example 6]
2. C[C@H]1COCCN1c1cccc(Cn2ncc3cnc(Nc4cnn(C)c4)nc32)c1 [Example 112]

Data returned:
["≥ 10 µM", "≥ 10 µM"]

----------
Please respond with reported IC50 for every item in the list.
Biological target: Aurora B (Homo sapiens, UniProt Q96GD4)
Construct: cell lysates from Jurkat cells (ATCC TIB-152) used; endogenous in cells
Sequence (Q96GD4 whole entry): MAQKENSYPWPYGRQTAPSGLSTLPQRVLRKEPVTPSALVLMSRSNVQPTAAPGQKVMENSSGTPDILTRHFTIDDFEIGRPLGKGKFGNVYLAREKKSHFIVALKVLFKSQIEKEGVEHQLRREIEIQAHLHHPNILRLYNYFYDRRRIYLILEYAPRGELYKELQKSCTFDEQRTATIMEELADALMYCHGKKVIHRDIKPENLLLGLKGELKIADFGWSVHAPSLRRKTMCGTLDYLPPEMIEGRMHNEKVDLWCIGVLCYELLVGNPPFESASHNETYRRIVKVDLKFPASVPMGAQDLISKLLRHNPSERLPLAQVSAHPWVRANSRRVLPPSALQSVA
Experiment: Kinobeads assay, Aurora B
Details: lysate of pervanadate-treated Jurkat cells, read-out: Inhibition values (IC50) Aur B

Known IC50 results, listed for orientation:
Data request: Recorded IC50 for Fc1cc(N2CCOCC2)c(F)c(Cn2ncc3cnc(Nc4cnn(CC5CCNC5)c4)nc32)c1F (stereo not shown) , please?
Data returned: 1 to 10 µM

Data request: Recorded IC50 for C[C@H]1COCCN1c1cccc(Cn2ncc3cnc(Nc4cnn(C)c4)nc32)c1 , please?
Data returned: 1 to 10 µM

Data request: Recorded IC50 for Cn1cc(Nc2ncc3cnn(Cc4cccc(CN5CCOCC5)c4)c3n2)cn1 , please?
Data returned: 0.1 to 1 µM

Now consider a different molecule.
Data request: Recorded IC50 for NC(=O)CCn1cc(Nc2ncc3cnn(Cc4cccc(N5CCOCC5)c4)c3n2)cn1 , please?
Data returned: 0.1 to 1 µM

----------
Please respond with reported IC50 for every item in the list.
Target: Aurora A (Homo sapiens, UniProt O14965)
Construct: cell lysates from Jurkat cells (ATCC TIB-152) used; endogenous in cells
Sequence (O14965 1-403): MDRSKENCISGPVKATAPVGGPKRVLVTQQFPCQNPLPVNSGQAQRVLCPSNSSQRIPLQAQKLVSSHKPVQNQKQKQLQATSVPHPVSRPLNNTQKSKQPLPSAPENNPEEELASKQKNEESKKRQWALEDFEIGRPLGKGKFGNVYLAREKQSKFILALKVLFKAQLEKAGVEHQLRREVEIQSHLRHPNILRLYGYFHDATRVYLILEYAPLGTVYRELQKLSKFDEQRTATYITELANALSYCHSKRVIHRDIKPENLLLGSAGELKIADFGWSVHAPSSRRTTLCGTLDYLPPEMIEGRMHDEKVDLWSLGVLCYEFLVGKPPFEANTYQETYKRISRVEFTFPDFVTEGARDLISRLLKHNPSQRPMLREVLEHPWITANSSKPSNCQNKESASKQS
Assay: Kinobeads assay, Aurora A
Conditions: lysate of pervanadate-treated Jurkat cells, read-out: Inhibition values (IC50) Aur A

Known IC50 results, listed for orientation:
Data request: Recorded IC50 for O=C1CCCN1CCCn1cc(Nc2ncc3cnn(Cc4cccc(N5CCOCC5)c4)c3n2)cn1 [Example 30] , please?
Data returned: 100 to 1000 nM

Data request: Recorded IC50 for CN(C)CCCn1cc(Nc2ncc3cnn(Cc4c(F)ccc(N5CCOCC5=O)c4F)c3n2)cn1 [Example 75] , please?
Data returned: 100 to 1000 nM

Data request: Recorded IC50 for Cn1cc(Nc2ncc3cnn(Cc4cccc(N5CC6(COC6)C5)c4F)c3n2)cn1 [Example 91] , please?
Data returned: ≥ 10000 nM

Report IC50 for every entry below.
1. NC(=O)CCn1cc(Nc2ncc3cnn(Cc4cccc(N5CCOCC5)c4)c3n2)cn1 [Example 14]
2. OCCn1cc(Nc2ncc3cnn(Cc4cc(F)cc(N5CCNCC5)c4)c3n2)cn1 [Example 93]
3. CNC(=O)Cn1cc(Nc2ncc3cnn(Cc4cc(F)cc(N5CCOCC5=O)c4)c3n2)cn1 [Example 68]
4. Cn1cc(Nc2ncc3cnn(Cc4cccc(-c5cnn(C)c5)c4)c3n2)cn1 [Example 115]
5. OCCn1cc(Nc2ncc3cnn(Cc4cc(N5CCOCC5)cc(F)c4F)c3n2)cn1 [Example 56]
6. Cn1cc(Nc2ncc3cnn(Cc4cccc(N5CCS(=O)(=O)CC5)c4)c3n2)cn1 [Example 25]
7. Cn1cc(Nc2ncc3cnn(Cc4cccc(N5CC6(COC6)C5)c4)c3n2)cn1 [Example 89]
8. Fc1cc(N2CCOCC2)c(F)c(Cn2ncc3cnc(Nc4cn[nH]c4)nc32)c1F [Example 81]

Data returned:
["100 to 1000 nM", "100 to 1000 nM", "100 to 1000 nM", "100 to 1000 nM", "1000 to 10000 nM", "100 to 1000 nM", "100 to 1000 nM", "100 to 1000 nM"]

Report IC50 for every entry below.
1. Cn1cc(-c2cccc(Cn3ncc4cnc(Nc5cnn(CCO)c5)nc43)c2F)cn1 [Example 124]
2. C[C@H]1COCCN1c1cccc(Cn2ncc3cnc(Nc4cnn(C)c4)nc32)c1 [Example 112]
3. CN(C)CC(O)Cn1cc(Nc2ncc3cnn(Cc4cccc(N5CCOCC5)c4)c3n2)cn1 (centres unmarked) [Example 33]
4. Fc1cc(N2CCOCC2)c(F)c(Cn2ncc3cnc(Nc4cnn(CC5CCNC5)c4)nc32)c1F (centres unmarked) [Example 94]
5. Cn1cc(Nc2ncc3cnn(Cc4cccc(C5CCOCC5)c4)c3n2)cn1 [Example 9]
6. CN(C)CC(F)Cn1cc(Nc2ncc3cnn(Cc4cc(F)cc(N5CCOCC5=O)c4)c3n2)cn1 (centres unmarked) [Example 97]

Data returned:
1: 100 to 1000 nM; 2: 100 to 1000 nM; 3: 1000 to 10000 nM; 4: 1000 to 10000 nM; 5: 100 to 1000 nM; 6: 100 to 1000 nM

----------
Molecular target: JAK2 (Homo sapiens, UniProt O60674)
Construct: endogenous in cells
Sequence (O60674 whole entry): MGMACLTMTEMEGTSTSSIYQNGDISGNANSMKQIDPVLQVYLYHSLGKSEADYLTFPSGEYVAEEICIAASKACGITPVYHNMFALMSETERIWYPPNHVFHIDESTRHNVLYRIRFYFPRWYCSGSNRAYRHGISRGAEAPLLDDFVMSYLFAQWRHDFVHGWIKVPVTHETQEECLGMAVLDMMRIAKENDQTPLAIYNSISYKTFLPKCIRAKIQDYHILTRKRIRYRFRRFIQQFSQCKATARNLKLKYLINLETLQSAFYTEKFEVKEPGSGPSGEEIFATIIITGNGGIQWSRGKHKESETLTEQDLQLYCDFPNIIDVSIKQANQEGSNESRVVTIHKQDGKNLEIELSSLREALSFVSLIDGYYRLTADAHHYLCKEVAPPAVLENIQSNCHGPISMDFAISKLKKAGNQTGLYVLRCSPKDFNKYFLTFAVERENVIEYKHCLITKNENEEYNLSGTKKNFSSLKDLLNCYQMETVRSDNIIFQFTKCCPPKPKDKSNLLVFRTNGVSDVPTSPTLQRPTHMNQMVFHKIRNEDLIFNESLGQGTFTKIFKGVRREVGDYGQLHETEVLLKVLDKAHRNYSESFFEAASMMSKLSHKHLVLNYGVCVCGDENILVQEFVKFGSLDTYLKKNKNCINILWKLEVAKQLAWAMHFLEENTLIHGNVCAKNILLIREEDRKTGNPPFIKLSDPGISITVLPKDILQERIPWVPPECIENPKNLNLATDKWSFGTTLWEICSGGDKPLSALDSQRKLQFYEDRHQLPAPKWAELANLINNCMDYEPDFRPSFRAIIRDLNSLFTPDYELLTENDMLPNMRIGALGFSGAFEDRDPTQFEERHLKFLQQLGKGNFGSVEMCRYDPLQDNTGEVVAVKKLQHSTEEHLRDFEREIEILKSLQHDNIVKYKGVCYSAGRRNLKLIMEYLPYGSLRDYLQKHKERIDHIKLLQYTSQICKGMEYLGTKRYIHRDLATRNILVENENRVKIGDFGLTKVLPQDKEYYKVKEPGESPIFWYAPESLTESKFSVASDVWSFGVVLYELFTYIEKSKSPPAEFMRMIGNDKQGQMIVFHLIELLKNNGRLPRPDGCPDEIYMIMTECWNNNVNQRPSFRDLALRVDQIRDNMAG
Assay: Kinobeads assay, JAK2
Conditions: mixed Molt4/Ramos lysate, read-out: Inhibition values (IC50) JAK2
quantity.name: IC50

Known IC50 results, listed for orientation:
Data request: Recorded IC50 for Cn1cc(Nc2ncc3cnn(Cc4cccc(N5CCOCC5)c4)c3n2)cn1 , please?
Data returned: 1 to 10 µM

Data request: Recorded IC50 for CNC(=O)Cn1cc(Nc2ncc3cnn(Cc4cccc(N5CCOCC5)c4)c3n2)cn1 , please?
Data returned: ≥ 10 µM

Data request: Recorded IC50 for OCCCn1cc(Nc2ncc3cnn(Cc4cccc(N5CCOCC5)c4)c3n2)cn1 , please?
Data returned: ≥ 10 µM

Data request: Recorded IC50 for Cn1cc(Nc2ncc3cnn(Cc4cccc(N5CC6(COC6)C5)c4)c3n2)cn1 , please?
Data returned: ≥ 10 µM

Data request: Recorded IC50 for Cn1cc(Nc2ncc3cnn(Cc4cc(N5CCOCC5=O)cc(F)c4F)c3n2)cn1 , please?
Data returned: ≥ 10 µM

Data request: Recorded IC50 for CNC(=O)CCn1cc(Nc2ncc3cnn(Cc4cccc(N5CCOCC5)c4)c3n2)cn1 , please?
Data returned: ≥ 10 µM

Data request: Recorded IC50 for Cn1cc(Nc2ncc3cnn(Cc4cccc(N5CCNCC5)c4)c3n2)cn1 , please?
Data returned: 1 to 10 µM

Data request: Recorded IC50 for Cn1cc(Nc2ncc3cnn(Cc4cccc(N5CCOCC5=O)c4)c3n2)cn1 , please?
Data returned: 1 to 10 µM

Report IC50 for every entry below.
1. Cn1cc(Nc2ncc3cnn(Cc4cc(F)cc(N5CCOCC5=O)c4F)c3n2)cn1
2. OCCn1cc(Nc2ncc3cnn(Cc4cc(N5CCOCC5)cc(F)c4F)c3n2)cn1
3. CN(C)CCCn1cc(Nc2ncc3cnn(Cc4cccc(N5CCOCC5=O)c4F)c3n2)cn1
4. OCCn1cc(Nc2ncc3cnn(Cc4cccc(N5CCNCC5)c4)c3n2)cn1
5. CN(C)CC(F)Cn1cc(Nc2ncc3cnn(Cc4cc(F)cc(N5CCOCC5=O)c4)c3n2)cn1 (centres unmarked)
6. O=C1CNCCN1c1cc(F)c(F)c(Cn2ncc3cnc(Nc4cnn(CCO)c4)nc32)c1
7. CN(C)C(=O)CCn1cc(Nc2ncc3cnn(Cc4cccc(N5CCOCC5)c4)c3n2)cn1
8. CN(C)CCCn1cc(Nc2ncc3cnn(Cc4cccc(N5CCOCC5=O)c4)c3n2)cn1

Data returned:
1: 0.1 to 1 µM; 2: ≥ 10 µM; 3: 1 to 10 µM; 4: 1 to 10 µM; 5: 1 to 10 µM; 6: ≥ 10 µM; 7: 1 to 10 µM; 8: ≥ 10 µM

Data request: Recorded IC50 for O=C(c1cc(F)c(F)c(Cn2ncc3cnc(Nc4cnn(CCO)c4)nc32)c1F)N1CCOCC1 , please?
Data returned: 1 to 10 µM
